- Assay System: TEAD1-YAP interaction (Homo sapiens, UniProt P28347)
- Sequence (P28347 167-426 limits assumed): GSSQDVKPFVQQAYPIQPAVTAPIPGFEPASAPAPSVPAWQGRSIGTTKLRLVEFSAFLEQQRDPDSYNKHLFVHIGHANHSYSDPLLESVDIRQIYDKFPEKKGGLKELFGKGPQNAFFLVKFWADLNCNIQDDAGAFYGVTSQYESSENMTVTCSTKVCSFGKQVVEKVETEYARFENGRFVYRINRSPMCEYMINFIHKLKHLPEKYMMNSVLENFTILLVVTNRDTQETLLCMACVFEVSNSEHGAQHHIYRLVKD
- Protocol: Gal4-TEAD1/YAP reporter assay
- Setup Conditions: read-out: IC50, inhibition of TEAD1-YAP interaction
Observable: IC50 (µM)
Write the number in µM without appending the unit.

Asked: Return reported IC50. Input molecule: O=C(CSc1nnc[nH]1)Nc1ccc(C23CC4CC(CC(C4)C2)C3)cc1
Given back: 0.083

====

- Assay System: TEAD2 (Homo sapiens, UniProt Q15562)
- Construct: The cDNA encoding human TEAD2 (residues 217-447, TEAD2^217-447) was cloned into a pET29 vector; made in house; host or cells: E. coli BL21(DE3)-T1R
- Sequence (Q15562 217-447): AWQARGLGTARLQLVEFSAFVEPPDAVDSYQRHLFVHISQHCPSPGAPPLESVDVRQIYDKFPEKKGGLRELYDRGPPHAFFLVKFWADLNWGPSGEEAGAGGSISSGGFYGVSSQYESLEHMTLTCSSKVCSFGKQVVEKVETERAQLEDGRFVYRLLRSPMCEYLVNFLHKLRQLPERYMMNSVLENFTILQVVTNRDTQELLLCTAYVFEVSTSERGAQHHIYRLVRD
- Protocol: In vitro palmitoylation assay to measure potency of TEAD palmitoylation inhibitors (Example 11)
- Assay type: biochemical
- Setup Conditions: compound at 5 μM, 3 μM alkyne palmitoyl-CoA, normalized to DMSO control
Here, each record is paired with measured inhibition at 5 µM data.
Express the result in % but write the number alone.

Known results for molecules:
{"Structure Smiles String": "O=C(CSc1nnc[nH]1)Nc1ccc(-c2ccccc2)cc1", "inhibition at 5 µM, %": 89}
{"Structure Smiles String": "O=C(CSc1nnc[nH]1)Nc1ccc(-c2cccc3ccccc23)cc1", "inhibition at 5 µM, %": 90}
{"Structure Smiles String": "O=C(CCSc1nnc[nH]1)Nc1ccc(C23CC4CC(CC(C4)C2)C3)cc1", "inhibition at 5 µM, %": 100}

We now examine a further molecule.
Asked: Recall and state the measured inhibition at 5 µM for O=C(CCSc1nnc(-c2ccc(Cl)cc2Cl)o1)Nc1cccc(C23CC4CC(CC(C4)C2)C3)c1 .
Given back: 63

====

- Assay System: TEAD2 (Homo sapiens, UniProt Q15562)
- Construct: The cDNA encoding human TEAD2 (residues 217-447, TEAD2^217-447) was cloned into a pET29 vector; made in house; host or cells: E. coli BL21(DE3)-T1R
- Protocol: In vitro palmitoylation assay to measure potency of TEAD palmitoylation inhibitors (Example 11)
- Format: biochemical
- Setup Conditions: compound at 5 μM, 3 μM alkyne palmitoyl-CoA, normalized to DMSO control
Overview of recorded inhibition at 5 µM for various compounds
Please reply with the bare figure in % and do not write the unit itself.

{"Structure Smiles String": "Cn1c(SCC(=O)Nc2ccc(C34CC5CC(CC(C5)C3)C4)cc2)nnc1-c1ccccc1", "Assay System": "TEAD2 (Homo sapiens, UniProt Q15562)", "inhibition at 5 µM / %": 70}
{"Structure Smiles String": "O=C(CSc1nnc[nH]1)Nc1ccc(-c2cc(-c3ccccc3)nc(-c3ccccc3)c2)cc1", "Assay System": "TEAD2 (Homo sapiens, UniProt Q15562)", "inhibition at 5 µM / %": 78}
{"Structure Smiles String": "O=C(CSc1nnc[nH]1)Nc1ccc(-c2ccc(C3CCCCC3)cc2)cc1", "Assay System": "TEAD2 (Homo sapiens, UniProt Q15562)", "inhibition at 5 µM / %": 93}

Asked: State, in one line, measured inhibition at 5 µM of O=C(CSc1nncs1)Nc1ccc(C23CC4CC(CC(C4)C2)C3)cc1
Given back: 68

====

# key: entry, value: inhibition at 5 µM
- Assay System: TEAD2 (Homo sapiens)
- Construct: The cDNA encoding human TEAD2 (residues 217-447, TEAD2^217-447) was cloned into a pET29 vector; made in house; host or cells: E. coli BL21(DE3)-T1R
- Protocol: In vitro palmitoylation assay to measure potency of TEAD palmitoylation inhibitors (Example 11)
- Assay type: biochemical
- Setup Conditions: compound at 5 μM, 3 μM alkyne palmitoyl-CoA, normalized to DMSO control
Quick reminder: number only, in %, skip the unit.

Some entries whose results are on file:
{"Molecule": "COc1ccc(-c2nnc(SCC(=O)Nc3ccc(C45CC6CC(CC(C6)C4)C5)cc3)[nH]2)cc1", "Endpoint Unit": "%", "inhibition at 5 µM": 80}
{"Molecule": "O=C(CSc1nnc[nH]1)Nc1ccc(-c2cccc(C(F)(F)F)c2)cc1", "Endpoint Unit": "%", "inhibition at 5 µM": 88}
{"Molecule": "O=C(CSc1nnc[nH]1)Nc1ccc(-c2cc(C(F)(F)F)cc(C(F)(F)F)c2)cc1", "Endpoint Unit": "%", "inhibition at 5 µM": 95}
{"Molecule": "O=C(CSc1nnc[nH]1)Nc1ccc(-c2cccc(-c3ccncc3)c2)cc1", "Endpoint Unit": "%", "inhibition at 5 µM": 100}
{"Molecule": "O=C(CSc1nnc[nH]1)Nc1ccc(-c2cccc(-c3cccnc3)c2)cc1", "Endpoint Unit": "%", "inhibition at 5 µM": 100}

Asked: Supply inhibition at 5 µM value. Item: O=C(CSc1nnc[nH]1)Nc1ccc(-c2ccncc2)cc1
Given back: 90

Asked: Return inhibition at 5 µM (reported value) for this molecule: Cc1cccc(C)c1-c1ccc(NC(=O)CSc2nnc[nH]2)cc1 [drawing 42]
Given back: 100
